Cited source: patent US20100183625A1

# target-or-test-system: T1, pKal (Homo sapiens, UniProt P03952)
# T1 construct: two disulfide linked polypeptides; a heavy chain of approximately 52 kDa and a catalytic domain of approximately 34 kDa; host or cells: human plasma
# T1 sequence (P03952 391-638 limits assumed): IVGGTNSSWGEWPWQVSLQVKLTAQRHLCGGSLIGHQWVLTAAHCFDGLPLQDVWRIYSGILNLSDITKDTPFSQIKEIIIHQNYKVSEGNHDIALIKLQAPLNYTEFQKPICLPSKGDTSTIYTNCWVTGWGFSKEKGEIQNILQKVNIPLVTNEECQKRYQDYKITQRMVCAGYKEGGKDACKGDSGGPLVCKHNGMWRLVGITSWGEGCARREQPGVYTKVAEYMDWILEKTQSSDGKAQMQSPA
# T1 sequence (P03952 20-390 partner limits assumed): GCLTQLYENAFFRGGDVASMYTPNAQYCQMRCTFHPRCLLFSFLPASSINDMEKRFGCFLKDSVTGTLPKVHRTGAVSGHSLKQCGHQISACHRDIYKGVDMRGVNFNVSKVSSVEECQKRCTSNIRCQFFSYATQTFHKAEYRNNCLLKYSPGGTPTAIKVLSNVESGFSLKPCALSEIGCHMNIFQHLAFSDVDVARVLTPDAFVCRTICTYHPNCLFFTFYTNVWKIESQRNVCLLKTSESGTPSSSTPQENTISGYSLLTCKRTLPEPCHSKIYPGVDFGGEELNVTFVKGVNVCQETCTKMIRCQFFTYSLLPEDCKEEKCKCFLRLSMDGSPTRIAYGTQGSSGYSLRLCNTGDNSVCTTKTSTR
# experiment-notes: Fab fragments (small scale) tested for inhibition against human pKal in an in vitro protease cleavage assay
# Format: biochemical
# run-parameters: Table 9
parameter-measured: Inhibit as a Fab?

molecule	Inhibit as a Fab?
X68-A03: single point mutation of M142-H08 (P3); HV-CDR3 GGLLLDFRELKSNYFDY (antibody, V domains shown) VL: QDIQMTQSPSSLSAFVGDRVTITCRASQPIDNYLNWYHQKPGKAPKLLIYAASRLQSGVPSRLSGSGFGTDFTLTISSLQPEDFSNYYCQQSYTVPYTFGGGTKVEIR VH: EVQLLESGGGLVQPGGSLRLSCAASGFTFSAYSMIWVRQAPGKGLEWVSYIRPSGGRTTYADSVKGRFTISRDNSKNTLYLQMNSLRAEDTAVYYCARGGLLLDFRELKSNYFDYWGQGTLVTVSSASTKGPSVFPLAPSSKS	No
X66-D03: single point mutation of M142-H08 (P1); HV-CDR3 GGLLLWFEELKSNYFDY (antibody, V domains shown) VL: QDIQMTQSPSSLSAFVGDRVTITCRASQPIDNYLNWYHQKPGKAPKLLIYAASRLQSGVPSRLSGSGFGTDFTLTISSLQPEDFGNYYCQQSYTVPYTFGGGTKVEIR VH: EVQLLESGGGLVQPGGSLRLSCAASGFTFSAYSMIWVRQAPGKGLEWVSYIRPSGGRTTYADSVKGRFTISRDNSKNTLYLQMNSLRAEDTAVYYCARGGLLLWFEELKSNYFDYWGQGTLVTVSSASTKGPSVFPLAPSSKS	No
X69-F01: single point mutation of M142-H08 (P1′); HV-CDR3 GGLLLWFRTLKSNYFDY (antibody, V domains shown) VL: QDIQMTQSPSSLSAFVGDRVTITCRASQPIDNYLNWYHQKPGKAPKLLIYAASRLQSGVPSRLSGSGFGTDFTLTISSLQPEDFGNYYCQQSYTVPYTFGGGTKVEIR VH: EVQLLESGGGLVQPGGSLRLSCAASGFTFSAYSMIWVRQAPSKGLEWVSYIRPSGGRTTYADSVKGRFTISRDNSKNTLYLQMNSLRAEDTAVYYCARGGLLLWFRTLKSNYFDYWGQGTLVTVSSASTKGPSVFPLAPSSKS	Yes
X68-F12: single point mutation of M142-H08 (P3); HV-CDR3 GGLLLTFRELKSNYFDY (antibody, V domains shown) VL: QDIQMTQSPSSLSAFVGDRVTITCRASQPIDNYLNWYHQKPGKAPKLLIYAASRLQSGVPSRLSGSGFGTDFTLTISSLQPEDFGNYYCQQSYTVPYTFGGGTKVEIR VH: EVQLLESGGGLVQPGGSLRLSCAASGFTFSAYSMIWVRQAPGKGLEWVSYIRPSGGRTTYADSVKGRFTISRDNSKNTLYLQMNSLRAEDTAVYYCARGGLLLTFRELKSNYFDYWGQGTLVTVSSASTKGPSVFPLAPSSKS	No

Would you mind telling me what Inhibit as a Fab? value was observed for X68-A12: single point mutation of M142-H08 (P3); HV-CDR3 GGLLLGFRELKSNYFDY (antibody, V domains shown) VL: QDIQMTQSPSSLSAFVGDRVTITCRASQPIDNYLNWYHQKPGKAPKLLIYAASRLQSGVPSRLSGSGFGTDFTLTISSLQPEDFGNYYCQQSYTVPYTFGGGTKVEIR VH: EVQLLESGGGLVQPGGSLRLSCAASGFTFSAYSMIWVRQAPGKGLEWVSYIRPSGGRTTYADSVKGRFTISRDNSKNTLYLQMNSLRAEDTAVYYCARGGLLLGFRELKSNYFDYWGQGTLVTVSSASTKGPSVFPLAPSSKS ? No

# iterate: X67-B05: single point mutation of M142-H08 (P2); HV-CDR3 GGLLLWPRELKSNYFDY (antibody, V domains shown) VL: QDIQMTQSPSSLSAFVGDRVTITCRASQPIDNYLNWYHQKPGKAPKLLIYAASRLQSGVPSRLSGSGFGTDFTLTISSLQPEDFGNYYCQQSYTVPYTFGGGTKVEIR VH: EVQLLESGGGLVQPGGSLRLSCAASGFTFSAYSMIWVRQAPGKGLEWVSYIRPSGGRTTYADSVKGRFTISRDNSKNTLYLQMNSLRAEDTAVYYCARGGLLLWPRELKSNYFDYWGQGTLVTVSSASTKGPSVFPLAPSSKS No
